Ref: PubChem BioAssay AID1963825

Listing of entries alongside the reported viability, T/C.
Experiment: Anticancer human tumor 997537-175-T-J1-PDC patient-derived colon adenocarcinoma cell line growth inhibition [POLQ]
Settings: 997537-175-T-J1-PDC complex spheroid viability, combination with POLQ inhibitors; second compound 1 µM; first compound 10 µM; active compounds read low
Express it in %; write the number only.

Q: Reported viability, T/C, compound O=C(c1cc(Cc2n[nH]c(=O)c3ccccc23)ccc1F)N1CCN(C(=O)C2CC2)CC1 + COC1C(OC(N)=O)C(O)C(Oc2ccc3c(O)c(NC(=O)c4ccc(O)c(CC=C(C)C)c4)c(=O)oc3c2C)OC1(C)C : ____
A: 96.3

Q: Reported viability, T/C, compound CCCS(=O)(=O)Nc1ccc(F)c(C(=O)c2c[nH]c3ncc(-c4ccc(Cl)cc4)cc23)c1F + Nc1ccc(C#CCN(C(=O)Cc2ncc(C(F)(F)F)cc2C(F)(F)F)c2ccc(F)cc2)nn1 : ____
A: 28.5

Q: Reported viability, T/C, compound COc1cc(C2c3cc4c(cc3C(OC3OC5COC(C)OC5C(O)C3O)C3COC(=O)C23)OCO4)cc(OC)c1O (stereo not drawn) + Nc1ccc(C#CCN(C(=O)Cc2ncc(C(F)(F)F)cc2C(F)(F)F)c2ccc(F)cc2)nn1 : ____
A: 67.7

###

Assay: Anticancer human tumor 997537-175-T-J1-PDC cell line growth inhibition [POLQ];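 further: luminescence signal used as a surrogate for viable cells; spheroids exposed to drugs for seven days before readout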
Settings: 997537-175-T-J1-PDC complex spheroid viability, combination with POLQ inhibitors; second compound 0.0316 µM; first compound 0.001 µM; active compounds read low
Method: Multicellular complex tumor spheroid response to Polymerase (POL) inhibitors (novobiocin, ART-558, RP6685) in combination with a variety of drugs and investigational agents in selected tumor cell lines The POL inhibitors (novobiocin, ART-558, and RP6685) were evaluated both individually and in combination with standard of care and investigational anticancer small molecules within a complex spheroid model of solid tumors. . […]
Listing of entries alongside the reported viability, T/C.
Express it in %; write the number only.

Cn1ncnc1[C@H]1c2n[nH]c(=O)c3cc(F)cc(c23)N[C@@H]1c1ccc(F)cc1 + Cc1cccc(N(C)C(=O)C2C(O)CCN2c2nc(C)cc(C(F)(F)F)c2C#N)c1	109
Cn1ncnc1[C@H]1c2n[nH]c(=O)c3cc(F)cc(c23)N[C@@H]1c1ccc(F)cc1 + Nc1ccc(C#CCN(C(=O)Cc2ncc(C(F)(F)F)cc2C(F)(F)F)c2ccc(F)cc2)nn1	97.4

Q: Reported viability, T/C, compound CC[C@@]1(O)C(=O)OCc2c1cc1n(c2=O)Cc2cc3c(CN(C)C)c(O)ccc3nc2-1 + COC1C(OC(N)=O)C(O)C(Oc2ccc3c(O)c(NC(=O)c4ccc(O)c(CC=C(C)C)c4)c(=O)oc3c2C)OC1(C)C : ____
A: 104

Q: Reported viability, T/C, compound CC[C@@]1(O)C(=O)OCc2c1cc1n(c2=O)Cc2cc3c(CN(C)C)c(O)ccc3nc2-1 + Cc1cccc(N(C)C(=O)C2C(O)CCN2c2nc(C)cc(C(F)(F)F)c2C#N)c1 : ____
A: 102

Q: Reported viability, T/C, compound CC[C@@]1(O)C(=O)OCc2c1cc1n(c2=O)Cc2cc3c(CN(C)C)c(O)ccc3nc2-1 + Nc1ccc(C#CCN(C(=O)Cc2ncc(C(F)(F)F)cc2C(F)(F)F)c2ccc(F)cc2)nn1 : ____
A: 94.6

Q: Reported viability, T/C, compound Cn1ncnc1[C@H]1c2n[nH]c(=O)c3cc(F)cc(c23)N[C@@H]1c1ccc(F)cc1 + COC1C(OC(N)=O)C(O)C(Oc2ccc3c(O)c(NC(=O)c4ccc(O)c(CC=C(C)C)c4)c(=O)oc3c2C)OC1(C)C : ____
A: 99.7
